Where these numbers come from: PubChem BioAssay (NCI)

- System: ACHN renal
- assay details: NCI-60 one-dose screen, 48 h (100 = growth as untreated, 0 = no growth, -100 = all killed)
- reported conditions: 10 µM unless noted
- Method: Growth inhibition of the ACHN human tumor cell line is measured as a screen for anti-cancer activity. Cells are grown in 96 well plates and exposed to the test compound for 48 hours. Compounds are tested at a single concentration, which is 10^-5 M for most compounds. The reported endpoint is percent growth (GI% or GIPRCNT), where numbers from 0 - 100% represent growth inhibition, and numbers from -100% - 0 represent cell death. For example, a value of 40 represents 60% growth inhibition. […]
This is part of a sample that, as a whole, favours compounds with a hit. Of some 83,000 tested, about 20% had one in any assay.
Overview of reported growth across a group of compounds:
Give just the numeric value; % need not be written.

Consider the following illustrative entries.
compound=Cc1cn(-c2cc(NC(=O)c3ccc(C)c(Nc4nccc(-c5cccnc5)n4)c3)cc(C(F)(F)F)c2)cn1 reported=55.8
compound="COc1ccc(C2OC(c3cc(-c4cc5ccccc5o4)nn3-c3ccccc3)=NN2C(C)=O)cc1 (centres undefined)" reported=99.3
compound=COCc1c(-c2ccc(NC(=O)Nc3cc(C(F)(F)F)ccc3F)c(F)c2)c2c(N)ncnn2c1CN1CCOCC1 reported=-1.81
compound=C=CCC(=O)N[C@H](/C=C/C(=O)O)Cc1ccc(-c2cc(Cl)cc(Cl)c2)cc1 reported=102
compound="Clc1ccc(C(Cn2ccnc2)OCc2ccsc2Cl)c(Cl)c1 (centres undefined)" reported=56.9

Q: Name the reported growth value associated with the compound `COc1ccc(/C(C)=C(\c2ccc(Cl)cc2)c2ccc(OCCN3CCCCCC3)cc2)cc1`
A: 67.3

Q: Return reported growth; argument: `COc1cc(F)c(F)c(Nc2ccc(I)cc2F)c1NS(=O)(=O)C1(C[C@H](O)CO)CC1`
A: 37.9

Q: Entry under review: `CN1CC[C@@H](c2c(O)cc(O)c3c(=O)cc(-c4ccccc4Cl)oc23)[C@@H]1CO` . Reported growth?
A: 4.44

Q: State the recorded growth for this entry: COC(=O)[C@@H](NC(=O)[C@@H](OC)[C@@H]1Cc2cc3cc(OC4CC(OC5CC(O)C(O)C(C)O5)C(O)C(C)O4)c(C)c(O)c3c(O)c2C(=O)[C@H]1OC1CC(OC2CC(OC3CC(C)(O)C(O)C(C)O3)C(O)C(C)O2)C(O)C(C)O1)C(C)C (some centres undefined)
A: 0.317

----------
- Tested on: IGROV1 ovarian
- assay details: NCI-60 one-dose screen, 48 h
- reported conditions: 10 µM unless noted
About 83,000 compounds went through this panel and 20% of them were active in at least one assay; those are over-represented in the sample as a whole. The source made the active and inactive calls. How the source made its calls: active means growth percent below 10; inactive means the rest.
Mark one answer only. Choices: active, inactive

Example results:
compound=CN(C[C@@H]1COCCO1)S(=O)(=O)Nc1ccc2ccc3ncc(-c4cnn(C)c4)cc3c(=O)c2c1 class_label=inactive
compound=CNC(=O)c1cc(Oc2cccc3nc(Nc4ccc(Oc5ccccc5)cc4)ccc23)ccn1 class_label=inactive
compound="Cc1nn(-c2nc3ccccc3[nH]2)c2c1C(c1ccc(O)cc1)CC(=O)N2 (stereo not given)" class_label=inactive
compound=ClCc1ccc(-c2ccc(Cn3cnc4c(Cl)nc(Cl)nc43)cc2)cc1 class_label=active

Now turn to the next compound.
Q: Outcome logged for `Clc1ccc(/C=C/c2cc(N3CCOCC3)c3cc(Cl)c(Cl)cc3n2)cc1` in this assay:
A: inactive

----------
- System: SNB-75 CNS
- assay details: NCI-60 one-dose screen, 48 h
- reported conditions: 10 µM unless noted
This is part of a sample that, as a whole, favours compounds with a hit. Of some 83,000 tested, about 20% had one in any assay. Calls of active or inactive are those of the source. Rule for the calls: active = growth percent below 10; inactive = the rest.
Parameter call: string, one of active, inactive

These recorded examples may help you get a feel for the data.
compound=Cc1nc(Nc2n[nH]c3c2CN(C(=O)N[C@H](CN(C)C)c2ccccc2)C3(C)C)c2sccc2n1 target="SNB-75 CNS" class_label=active
compound=COc1cc(Nc2c(C#N)cnc3cc(OCCCN4CCN(C)CC4)c(OC)cc23)c(Cl)cc1Cl target="SNB-75 CNS" class_label=inactive
compound=Cc1cc2c(-c3nc4ccccn4c3NC3CCCCC3)c(O)c(O)cc2c(O)c1-c1c(C)cc2c(-c3nc4ccccn4c3NC3CCCCC3)c(O)c(O)cc2c1O target="SNB-75 CNS" class_label=inactive
compound="O=CC(OC(=O)c1ccccc1)C(OC(=O)c1ccccc1)C(COC(c1ccccc1)(c1ccccc1)c1ccccc1)OC(=O)c1ccccc1 (centres undefined)" target="SNB-75 CNS" class_label=inactive
compound=C#Cc1cccc(Nc2ncnc3cc(OCCOC)c(OCCOC)cc23)c1 target="SNB-75 CNS" class_label=inactive

Please find the next compound below.
Q: Which outcome was assigned to COc1ccc(C2CC(=O)c3c(O)c(OC)c(OC)c(OC)c3O2)cc1O (centres undefined) in this test?
A: inactive

----------
- Tested on: PC-3 prostate
- assay details: NCI-60 one-dose screen, 48 h (100 = growth as untreated, 0 = no growth, -100 = all killed)
- reported conditions: 10 µM unless noted
The panel holds about 83,000 compounds, 20% with a hit somewhere; the sample as a whole holds those more often.
property name: growth (%)
Numeric answer only, unit % assumed.

Known results for molecules:
molecule=COC(=O)[C@]12CC[C@@H](C)[C@H](C)[C@@H]1C1=CC[C@@H]3[C@@]4(C)C(C=O)=C[C@@](C)(COS(C)(=O)=O)C4=CC[C@@]3(C)[C@]1(C)CC2 reported=-19.9
molecule="COc1ccc(C2CC(=O)c3c(O)c(OC)c(OC)c(OC)c3O2)c(O)c1 (stereo not drawn)" reported=29
molecule=COc1ccc(CCCc2c3[n+](cc4c(OC)c(OC)ccc24)CCc2cc4c(cc2-3)OCO4)cc1 reported=58.2

Q: Returns the measured growth for the input molecule. Input: `CN1CCC(CNc2ccc3ncc(-c4cccc(OC(F)(F)F)c4)n3n2)CC1`
A: -20.6

Q: Would you mind telling me what growth value was observed for `N#Cc1cc2[nH]c3ccc(OC(F)(F)F)cc3c2oc1=O` ?
A: 60.3

Q: Query (molecule): `CNC(=O)c1cccc2cc(Oc3ccnc4cc(OCC5(N)CC5)c(OC)cc34)ccc12` ; field requested: growth
A: 66.9

Q: Which measured growth value corresponds to `CCNC(=O)C#Cc1ccc2c(C(=Nc3ccc(CN(C)C)cc3)c3ccccc3)c(O)[nH]c2c1` ?
A: 44.4

Q: Returns the measured growth for the input molecule. Input: CC[C@@H]1C(=O)N(C)c2cnc(Nc3ccc(C(=O)NC4CCC(N5CCN(CC6CC6)CC5)CC4)cc3OC)nc2N1C(C)C (stereo partly drawn)
A: 9.7

----------
- Test system: EKVX NSCLC
- assay details: NCI-60 one-dose screen, 48 h
- reported conditions: 10 µM unless noted
About 83,000 compounds went through this panel and 20% of them were active in at least one assay; those are over-represented in the sample as a whole. Active and inactive are the calls of the source. The calls were made as follows: active = growth percent below 10; inactive = the rest.
// one of active, inactive, no free text

Use the examples below as a reference point.
molecule=O=C(COc1ccc(/C=C2\Cc3ccc(Cl)cc3C2=O)cc1)Nc1nccs1 class_label=inactive
molecule=C[C@]12O[C@H](C[C@]1(O)CO)n1c3ccccc3c3c4c(c5c6ccccc6n2c5c31)CNC4=O class_label=active
molecule="COc1c(C(NC(=O)c2ccccc2)c2sccc2C)cc(Cl)c2cccnc12 (stereo not given)" class_label=inactive
molecule=[2H]C1([2H])[C@H](C)O[C@H](C)C([2H])([2H])N1c1ccc(NC(=O)c2cccc(-c3ccc(OC(F)(F)F)cc3)c2C)cn1 class_label=inactive
molecule=O=S1(=O)OC(c2ccc(O)c(Cl)c2)(c2ccc(O)c(Cl)c2)c2ccccc21 class_label=inactive

Q: Status in this test for `COc1ccc(CCCc2c3[n+](cc4c(OC)c(OC)ccc24)CCc2cc4c(cc2-3)OCO4)cc1` ?
A: inactive

----------
We begin with a simple list: items and their reported growth.
- Test system: A549/ATCC NSCLC
- assay details: NCI-60 one-dose screen, 48 h (100 = growth as untreated, 0 = no growth, -100 = all killed)
- reported conditions: 10 µM unless noted
The panel holds about 83,000 compounds, 20% with a hit somewhere; the sample as a whole holds those more often.
# unit: % | format: bare number

molecule="CC(=O)C1CC(C)CCC1C(C)C (stereo not drawn)" reported=106
molecule=Cc1cc2c(-c3nc4ccccn4c3Nc3cccc4ccccc34)c(O)c(O)cc2c(O)c1-c1c(C)cc2c(-c3nc4ccccn4c3Nc3cccc4ccccc34)c(O)c(O)cc2c1O reported=16.1
molecule="Cc1ccccc1N1C(c2ccccc2)=NNC12C=CC(=O)C=C2Cl (stereo not drawn)" reported=75.5
molecule="Cc1nn(-c2ccccc2)c2c1N=c1s/c(=C\\c3cn(-c4ccccc4)nc3-c3ccc(Cl)cc3)c(=O)n1C(C)N2 (stereo not drawn)" reported=87.8
molecule=O=[N+]([O-])c1cc(Br)cc2c1[nH]c1ccc(Br)cc12 reported=52.3

Q: If you can, please state the reported growth value of COc1ccc(C2OC(c3cc(-c4cc5ccccc5o4)nn3-c3ccccc3)=NN2C(C)=O)cc1 (stereo not drawn) .
A: 102

Q: GET /values?readout=growth&item= `CC(=O)Oc1ccccc1C(=O)N=C1[Se]CCN1C(=O)c1ccccc1OC(C)=O`
A: -52.6

Q: growth lookup needed for CC1(O)CC(c2nc(-c3ccc4ccc(-c5ccccc5)nc4c3)c3c(N)nccn23)C1 (stereo not drawn) , thanks.
A: 33.5

Q: Which growth is listed for `O=C(Nc1cnn2ccc(N3CCC[C@@H]3c3cc(F)ccc3F)nc12)N1CC[C@H](O)C1` ?
A: 72.4
